Kindly supply the reported growth values for the records listed here.
Test system: MDA-MB-231 breast
Experimental Details: NCI-60 one-dose screen, 48 h (100 = growth as untreated, 0 = no growth, -100 = all killed)
Condition Summary: 10 µM unless noted
The panel holds about 83,000 compounds, 20% with a hit somewhere; the sample as a whole holds those more often.
Kindly provide the numeric value in % only, without the unit symbol.

INPUT: Query: growth; subject: C=C1C(=O)O[C@H]2[C@H](O)[C@@H](C)CCC/C(C)=C/CC[C@@]3(C)O[C@@H]3C[C@@H]12
OUTPUT: 77.9

INPUT: Here is the next compound: Cc1cc(Nc2nc(C(=O)Nc3ccccc3)nc3ccccc23)n[nH]1
OUTPUT: 85.4

INPUT: Consider next the compound C=C1C(=O)O[C@H]2[C@H]1CC/C(COC(=O)NCc1cc(OC)cc(OC)c1)=C\CC[C@@]1(C)O[C@@H]21 in the same way.
OUTPUT: -5.09

INPUT: Note, next up: CN=S(=O)(NC(=O)c1ccc(Cl)cc1Cl)c1ccc(Br)s1 (centres undefined)
OUTPUT: 104

----------
System: OVCAR-4 ovarian
Experimental Details: NCI-60 one-dose screen, 48 h (100 = growth as untreated, 0 = no growth, -100 = all killed)
Condition Summary: 10 µM unless noted
Compounds without any hit were thinned out: in the full panel of roughly 83,000, 20% have a hit. Calls of active or inactive are those of the source. The calls were made as follows: active = growth percent below 10; inactive = the rest.
For each record, write down the corresponding growth.

INPUT: Looking for the measured growth of COc1cc(OC)cc(-c2n[nH]nc2-c2ccc3c(c2)OCO3)c1 , can you help?
OUTPUT: 52.5% (inactive)

INPUT: Input Nc1c(C(=O)Nc2cccc(C(F)(F)F)c2)sc2nc3c(cc12)C(O)CCC3 (stereo unspecified)
OUTPUT: 58.5% (inactive)

INPUT: Also need O=C1CCCCN1CCCCC#Cc1ccccc1C#Cc1ccc([N+](=O)[O-])cc1 , thanks.
OUTPUT: 60.2% (inactive)

INPUT: And for Clc1ccc([I+]c2ccc(Cl)cc2Cl)c(Cl)c1 ?
OUTPUT: 0.221% (active)

INPUT: How about O=C(O)c1cccc([N+](=O)[O-])c1/C=C/c1ccccc1 ?
OUTPUT: 83.2% (inactive)

INPUT: Query CN(C)c1nc(N)c(N=O)c(N)n1 next
OUTPUT: 108% (inactive)

INPUT: Repeat with COc1cccc(-n2cc(-c3nc(Cl)c4ccccc4n3)nn2)c1
OUTPUT: 98.7% (inactive)

INPUT: Item: Cc1nc(Nc2cccnc2)sc1C(=O)/C=C/c1ccc(F)cc1
OUTPUT: 63.8% (inactive)

INPUT: How about COc1ccc(C(=O)/C=C/c2ccc(/C=C/c3cc(OC)c(OC)c(OC)c3)cc2)cc1 ?
OUTPUT: 65.7% (inactive)

INPUT: Moving on to O=C(CCCn1c(=O)c2sc3ccccc3c2n2nnc(-c3ccccc3)c12)NCCc1cnc[nH]1
OUTPUT: -54.5% (active)

INPUT: Proceed to CCn1cc(C(=O)O)c(=O)c2cc(F)c(N3CCN(S(=O)(=O)c4ccc(OC)c(OC)c4)CC3)cc21
OUTPUT: 110% (inactive)

INPUT: Likewise for COc1cccc(NC(=O)Cn2cc3c(=O)oc4ccccc4c3n2)c1 ?
OUTPUT: 92.8% (inactive)

INPUT: Can you handle CCN(CC)c1cc(/C=C/c2ccc(OC)c(OC)c2)nc2cc(F)c(F)cc12 next?
OUTPUT: 87.2% (inactive)

INPUT: Repeat for the following molecule: COc1cccc2cc(-c3cc4ccccc4[nH]3)/c(=N/C(=S)Nc3ccccc3)oc12
OUTPUT: 40.7% (inactive)

INPUT: Here is the next molecule: CCN(C(=O)c1cc2ncccc2[nH]1)[C@H]1CCC[C@@H](NCc2cccc(F)c2)C1
OUTPUT: 104% (inactive)

INPUT: Next molecule up: COc1cc(C(=O)OCCCCCCCCCCC[P+](c2ccccc2)(c2ccccc2)c2ccccc2)ccc1O
OUTPUT: -11.2% (active)
